Would you kindly list melting point for each of these compounds?

Ask: Endpoint output: melting point of CN(C)CCc1coc2ccc(NC(=O)c3cccs3)nc12.O=C(O)C(=O)O . Value?
Reply: 68 to 69 °C

Ask: Endpoint output: melting point of Cc1oc2ccc(NC(=O)c3cccs3)nc2c1CCN(C)C.O=C(O)C(=O)O . Value?
Reply: 211 to 212 °C

Ask: Endpoint output: melting point of Cc1oc2ccc(NC(=O)c3ccc(F)cc3)nc2c1CCN(C)C.O=C(O)C(=O)O . Value?
Reply: 136 to 138 °C

Ask: Endpoint output: melting point of Cc1oc2ccc(NC(=O)c3ccccc3)nc2c1CCN(C)C . Value?
Reply: 119 to 120 °C

Ask: Endpoint output: melting point of CN(C)CCc1coc2ccc(NC(=O)c3ccccc3)nc12.O=C(O)C(=O)O . Value?
Reply: 65 to 66 °C

Ask: Endpoint output: melting point of CN(C)CCc1coc2ccc(NC(=O)c3ccc(F)cc3)nc12.O=C(O)C(=O)O . Value?
Reply: 124 to 126 °C

Ask: Endpoint output: melting point of CCC(=O)Nc1ccc2occ(CCN(C)C)c2n1.O=C(O)C(=O)O . Value?
Reply: 153 to 155 °C

Ask: Endpoint output: melting point of CCC(=O)Nc1ccc2oc(C)c(CCN(C)C)c2n1.O=C(O)C(=O)O . Value?
Reply: 168 to 170 °C
